- method notes: Determination of S from retention time shift Δ relative to P3 at two gradient slopes, nano-RP-HPLC MS of spiked tryptic digest
- Format: physicochemical
- condition parameters: experimental S, LC-MS runs of model peptide mixture, formic acid
Some sequences, each annotated with its measured Slope (experimental).
// no unit, no text: just the number

| sequence | Slope (experimental) |
| --- | --- |
| RLDGSLDFK | 29.845 |
| SVDGKEDLIWK | 30.068 |

Turning now to a further record.
Determine its reported Slope (experimental): KPPDADGCLHADPDLGVLCPTGCK
40.448

---

- method notes: Determination of S from retention time shift Δ relative to P3 at two gradient slopes, nano-RP-HPLC MS of spiked tryptic digest
- Assay type: physicochemical
- condition parameters: experimental S, LC-MS runs of model peptide mixture, formic acid
measured metric: Slope (experimental)
// no unit, no text: just the number

| substance | measured metric | measured value |
| --- | --- | --- |
| SIEDLR | Slope (experimental) | 28.058 |

Determine its reported Slope (experimental): LLGGGGDFR
25.846

Determine its reported Slope (experimental): KENFEVLCK
27.567

Determine its reported Slope (experimental): HQLYIDETVK
34.369

Determine its reported Slope (experimental): SEDGSDCGDADFDWHHTFPSR
37.158

Determine its reported Slope (experimental): VLNEEQR
40.229

Determine its reported Slope (experimental): CCAADDKEACFAVEGPK
38.207

Determine its reported Slope (experimental): SLHTLFGDELCK
30.438

Determine its reported Slope (experimental): ECVPNSNER
44.66
